Numbers sourced from patent US9029384B2.

// values below are reported IC50
- target under test: PI3Kδ (Homo sapiens, UniProt O00329)
- Construct: made in house
- Sequence (O00329 whole entry): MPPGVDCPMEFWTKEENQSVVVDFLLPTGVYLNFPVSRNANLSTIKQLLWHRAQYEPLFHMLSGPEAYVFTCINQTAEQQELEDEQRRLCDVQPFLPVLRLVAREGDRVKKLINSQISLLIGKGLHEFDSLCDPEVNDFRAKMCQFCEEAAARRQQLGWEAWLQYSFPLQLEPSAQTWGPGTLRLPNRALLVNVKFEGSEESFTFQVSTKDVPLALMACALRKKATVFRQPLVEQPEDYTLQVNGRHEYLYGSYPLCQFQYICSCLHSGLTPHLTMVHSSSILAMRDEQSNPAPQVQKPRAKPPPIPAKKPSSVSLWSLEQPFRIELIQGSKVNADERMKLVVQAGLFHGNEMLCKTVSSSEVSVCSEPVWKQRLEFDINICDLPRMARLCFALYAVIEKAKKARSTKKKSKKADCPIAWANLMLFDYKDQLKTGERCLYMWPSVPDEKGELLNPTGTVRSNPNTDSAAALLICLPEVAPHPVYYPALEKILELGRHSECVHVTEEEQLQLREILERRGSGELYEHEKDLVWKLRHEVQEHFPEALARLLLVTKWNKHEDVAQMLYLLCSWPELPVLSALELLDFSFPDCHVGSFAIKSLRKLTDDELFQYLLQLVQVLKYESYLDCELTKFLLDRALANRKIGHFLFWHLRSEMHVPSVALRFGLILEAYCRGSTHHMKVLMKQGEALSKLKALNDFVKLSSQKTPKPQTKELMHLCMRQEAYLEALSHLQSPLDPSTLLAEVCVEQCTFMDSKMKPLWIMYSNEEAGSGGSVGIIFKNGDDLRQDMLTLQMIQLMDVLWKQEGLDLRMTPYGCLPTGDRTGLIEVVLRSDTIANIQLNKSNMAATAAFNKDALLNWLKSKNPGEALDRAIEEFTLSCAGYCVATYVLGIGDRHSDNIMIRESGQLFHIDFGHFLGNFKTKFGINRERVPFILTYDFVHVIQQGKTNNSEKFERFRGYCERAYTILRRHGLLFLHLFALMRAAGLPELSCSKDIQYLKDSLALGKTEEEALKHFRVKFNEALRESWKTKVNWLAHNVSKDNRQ
- Sequence (P27986 whole entry partner): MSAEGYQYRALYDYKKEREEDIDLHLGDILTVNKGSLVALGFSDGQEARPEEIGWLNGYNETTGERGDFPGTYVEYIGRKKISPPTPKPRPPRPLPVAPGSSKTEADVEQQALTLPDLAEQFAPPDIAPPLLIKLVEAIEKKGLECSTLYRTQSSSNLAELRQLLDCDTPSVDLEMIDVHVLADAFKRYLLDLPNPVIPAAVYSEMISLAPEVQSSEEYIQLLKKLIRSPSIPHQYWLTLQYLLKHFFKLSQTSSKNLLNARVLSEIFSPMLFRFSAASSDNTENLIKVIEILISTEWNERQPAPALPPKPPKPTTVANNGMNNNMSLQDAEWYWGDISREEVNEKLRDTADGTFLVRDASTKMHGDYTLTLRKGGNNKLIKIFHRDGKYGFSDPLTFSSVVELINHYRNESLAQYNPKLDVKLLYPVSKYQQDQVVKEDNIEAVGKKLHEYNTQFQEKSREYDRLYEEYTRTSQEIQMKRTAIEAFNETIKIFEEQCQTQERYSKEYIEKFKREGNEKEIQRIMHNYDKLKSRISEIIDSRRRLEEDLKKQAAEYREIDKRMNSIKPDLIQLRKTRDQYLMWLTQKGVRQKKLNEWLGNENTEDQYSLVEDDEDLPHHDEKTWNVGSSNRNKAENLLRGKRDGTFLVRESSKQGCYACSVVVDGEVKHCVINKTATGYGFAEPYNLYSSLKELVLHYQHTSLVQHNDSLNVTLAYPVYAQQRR
- method description: Enzymatic activity of PI3K isoforms, TR-FRET assay (PIP3 formation)
- Type: biochemical
- condition details: PI3Kδ; TR-FRET, 2×Km ATP, 10 μM PIP2; read-out: IC50

>  <compound>
CCC(Nc1nc(N)nc(N)c1C#N)c1nc2ccc(F)c(F)c2c(=O)n1-c1cc(F)cc(F)c1 (single isomer, unassigned) [Compound 30a]

>  <target under test>
PI3Kδ (Homo sapiens, UniProt O00329)

>  <IC50>
10 to 50 nM

$$$$

Value of IC50 reported for the compound CC(Nc1nc(N)nc(N)c1C#N)c1nc2cccc(F)c2c(=O)n1-c1cccc(F)c1 (single isomer, unassigned) [Compound 182a] is 1 to 10 nM

Value of IC50 reported for the compound CC(Nc1nc(N)nc(N)c1C#N)c1nc2c(F)ccc(Cl)c2c(=O)n1-c1cc(F)cc(F)c1 (single isomer, unassigned) [Compound 15a] is < 1 nM

Value of IC50 reported for the compound Cc1ccc(F)c2nc(C(C)Nc3nc(N)nc(N)c3C#N)n(-c3cc(F)cc(C#N)c3)c(=O)c12 (single isomer, unassigned) [Compound 31a] is 1 to 10 nM

Value of IC50 reported for the compound CC(Nc1nc(N)nc(N)c1C#N)c1nc2cccc(F)c2c(=O)n1-c1cccc(C(F)(F)F)c1 (single isomer, unassigned) [Compound 40a] is 1 to 10 nM

Value of IC50 reported for the compound CCC(Nc1nc(N)nc(N)c1C#N)c1nc2c(F)ccc(F)c2c(=O)n1-c1cc(F)cc(F)c1 (single isomer, unassigned) [Compound 27a] is 10 to 50 nM

Value of IC50 reported for the compound CC(Nc1nc(N)nc(N)c1C#N)c1nc2c(F)ccc(Cl)c2c(=O)n1-c1cc(F)cc(C#N)c1 (single isomer, unassigned) [Compound 48a] is 10 to 50 nM

----------
- target under test: PI3Kδ (Homo sapiens, UniProt O00329)
- Construct: made in house
- method description: Enzymatic activity of PI3K isoforms, TR-FRET assay (PIP3 formation)
- Assay type: biochemical
- condition details: PI3Kδ; TR-FRET, 2×Km ATP, 10 μM PIP2; read-out: IC50
- Protocol: Enzymatic Activity of PI3K Isoforms The TR-FRET assay was used to monitor formation of the product 3,4,5-inositol triphosphate molecule (PIP3) as it competed with fluorescently labeled PIP3 for binding to the GRP-1 pleckstrin homology domain protein. […] Data are normalized based on a positive (1 uM wortmanin) and negative (DMSO) controls. The α, β, δ, and γ IC50 values were calculated from the fit of the dose-response curves to a four-parameter equation. […]
// values below are reported IC50

Illustrative cases are given below, each with its answer.
>  <compound>
CC(Nc1nc(N)nc(N)c1F)c1nc2cccc(Cl)c2c(=O)n1-c1ccccc1 (single isomer, unassigned) [Compound 194a]

>  <observed measurement>
> 50 nM

$$$$
>  <compound>
CC(Nc1nc(N)nc(N)c1C#N)c1nc2cccc(C#N)c2c(=O)n1-c1ccccc1 (single isomer, unassigned) [Compound 7a]

>  <observed measurement>
1 to 10 nM

$$$$
>  <compound>
CC(Nc1nc(N)nc(N)c1C#N)c1nc2cccc(C#N)c2c(=O)n1-c1cccc(F)c1 (single isomer, unassigned) [Compound 131a]

>  <observed measurement>
1 to 10 nM

$$$$
>  <compound>
Cc1ccc(F)c2c(=O)n(-c3cc(F)cc(F)c3)c(C(C)Nc3nc(N)nc(N)c3C#N)nc12 (single isomer, unassigned) [Compound 35a]

>  <observed measurement>
1 to 10 nM

$$$$

Okay, now this compound:
Value of IC50 reported for the compound CC(Nc1nc(N)nc(N)c1S(C)(=O)=O)c1nc2cccc(Cl)c2c(=O)n1-c1cc(F)cc(F)c1 (single isomer, unassigned) [Compound 94a] is > 50 nM
